tested on: EGFR (h); format: biochemical, human; settings: 0.1 μM test compound, 10 μM ATP; remaining activity relative to DMSO control = 100%
Readout Label: Activity (control) % EGFR (h) (%)

C=C(CN1CCOCC1)C(=O)Nc1cccc(Nc2ncc(Cl)c(Nc3ccccc3C(=O)C(=O)N(C)C)n2)c1 = 85
C=CC(=O)Nc1cc(Nc2ncc(Cl)c(Nc3ccccc3C(=O)C(=O)N(C)CCN(C)C)n2)ccc1OC = 98
C=C(CN(C)C)C(=O)Nc1ccc(OC)c(Nc2ncc(Cl)c(Nc3ccccc3C(=O)C(=O)N(C)C)n2)c1 = 68
C=C(CN1CCCC1)C(=O)Nc1ccc(OC)c(Nc2ncc(Cl)c(Nc3ccccc3C(=O)C(=O)N(C)C)n2)c1 = 74
C=C(CN(C)CCN(C)C)C(=O)Nc1ccc(OC)c(Nc2ncc(Cl)c(Nc3ccccc3C(=O)C(=O)N(C)C)n2)c1 = 93
COc1ccc(NC(=O)/C=C/CN2CCOCC2)cc1Nc1ncc(Cl)c(Nc2ccccc2C(=O)C(=O)N(C)C)n1 = 92
CN(C)C/C=C/C(=O)Nc1cccc(Nc2ncc(Cl)c(Nc3ccccc3C(=O)C(=O)N(C)C)n2)c1 = 91

====

A collection of compounds and their measured Activity (control) % ALK (h)
test system: ALK (h); type: biochemical, human; conditions: 0.1 μM test compound, 10 μM ATP; remaining activity relative to DMSO control = 100%
Readout Label: Activity (control) % ALK (h)

COc1cc(N2CCC(N(C)C)CC2)ccc1Nc1ncc(Cl)c(Nc2ccccc2C(=O)C(N)=O)n1 [Example 4] = 8%
CN(C)C(=O)C(=O)c1ccccc1Nc1nc(Nc2ccc(F)c(NC(=O)CCN3CCOCC3)c2)ncc1Cl [Example 123] = 17%
C=C(CN1CCCCC1)C(=O)Nc1ccc(OC)c(Nc2ncc(Cl)c(Nc3ccccc3C(=O)C(=O)N(C)C)n2)c1 [Example 73] = 17%
C=CC(=O)Nc1cc(Nc2ncc(Cl)c(Nc3ccccc3C(=O)C(=O)N(C)C)n2)ccc1OC1CCOC1 (stereo not shown) [Example 124] = 16%
C=CC(=O)Nc1cc(Nc2ncc(Cl)c(Nc3ccccc3C(=O)C(=O)N(CC)CC)n2)ccc1OC [Example 132] = 16%
COc1cc(Nc2ncc(Cl)c(Nc3ccccc3C(=O)C(=O)N(C)C)n2)ccc1N1CCOCC1 [Example 117] = 8%
C=CC(=O)Nc1cccc(Nc2ncc(Cl)c(Nc3ccccc3C(=O)C(=O)N(C)C)n2)c1 [Example 40] = 28%

====

system: EGFR (T790M) (h); format: biochemical, human
A collection of compounds and their measured Activity (control) % EGFR (T790M) (h)
Readout Label: Activity (control) % EGFR (T790M) (h)

COc1cc(Nc2ncc(Cl)c(Nc3ccccc3C(=O)C(=O)N(C)C)n2)ccc1N1CCC(N(C)C)CC1 = 18%
C=CC(=O)Nc1cccc(Nc2nc(Nc3ccc(N4CCN(C(C)=O)CC4)cc3OC)ncc2C(F)(F)F)c1 [CO-1686, reference compound] = 21%
COc1cc(N2CCC(N(C)C)CC2)ccc1Nc1ncc(Cl)c(Nc2ccccc2C(=O)C(N)=O)n1 = 4%
COc1cc(Nc2ncc(Cl)c(Nc3ccccc3C(=O)C(=O)N(C)C)n2)ccc1N1CCN(C)CC1 = 54%
C=CC(=O)Nc1cc(Nc2ncc(Cl)c(Nc3ccccc3C(=O)C(=O)N(C)C)n2)c(OC)cc1N1CCN(C)CC1 = 62%
C=CC(=O)Nc1ccc(OC)c(Nc2ncc(Cl)c(Nc3ccccc3C(=O)C(=O)N(C)C)n2)c1 = 50%

====

tested on: EGFR (T790M, L858R) (h); format: biochemical, human; details: 0.1 μM test compound, 10 μM ATP; remaining activity relative to DMSO control = 100%
A collection of molecules and their measured Activity (control) % EGFR (T790M, L858R) (h)
Readout Label: Activity (control) % EGFR (T790M, L858R) (h)

C=CC(=O)Nc1cc(Nc2ncc(Cl)c(Nc3ccccc3C(=O)C(=O)NC)n2)ccc1OC = 39%
COc1cc(N2CCN(C(C)=O)CC2)ccc1Nc1ncc(Cl)c(Nc2ccccc2C(=O)C(=O)N(C)C)n1 = 4%
C=CC(=O)Nc1cccc(Nc2ncc(Cl)c(Nc3ccccc3C(=O)C(=O)N(C)C)n2)c1 = 24%
C=CC(=O)Nc1cc(Nc2ncc(C)c(Nc3ccccc3C(=O)C(=O)N(C)C)n2)ccc1OC = 41%
C=C(CN1CCCCC1)C(=O)Nc1cccc(Nc2ncc(Cl)c(Nc3ccccc3C(=O)C(=O)N(C)C)n2)c1 = 3%
C=CC(=O)Nc1cc(Nc2ncc(Cl)c(Nc3ccccc3C(=O)C(=O)N(C)C)n2)ccc1OC1CCOC1 (centres unmarked) = 20%
CCC(=O)Nc1cc(Nc2ncc(Cl)c(Nc3ccccc3C(=O)C(=O)N(C)C)n2)ccc1OCCN(C)C = 14%
C=CC(=O)Nc1ccc(OC)c(Nc2ncc(Cl)c(Nc3ccccc3C(=O)C(=O)N(CC)CC)n2)c1 = 27%
C=CC(=O)Nc1ccc(N2CCN(C)CC2)c(Nc2ncc(Cl)c(Nc3ccccc3C(=O)C(=O)N(C)C)n2)c1 = 95%
C=CC(=O)Nc1cc(Nc2ncc(Cl)c(Nc3ccccc3C(=O)C(=O)N(C)C)n2)ccc1N1CCN(C)CC1 = 11%
C=C(CN1CCOCC1)C(=O)Nc1cccc(Nc2ncc(Cl)c(Nc3ccccc3C(=O)C(=O)N(C)C)n2)c1 = 1%
COc1ccc(NC(=O)/C=C/CN2CCOCC2)cc1Nc1ncc(Cl)c(Nc2ccccc2C(=O)C(=O)N(C)C)n1 = 2%
C=C(CN(C)CCN(C)C)C(=O)Nc1cccc(Nc2ncc(Cl)c(Nc3ccccc3C(=O)C(=O)N(C)C)n2)c1 = 2%
CN(C)C/C=C/C(=O)Nc1cccc(Nc2ncc(Cl)c(Nc3ccccc3C(=O)C(=O)N(C)C)n2)c1 = 8%
C=CC(=O)Nc1cc(Nc2ncc(Cl)c(Nc3ccccc3C(=O)C(=O)N(C)C)n2)c(OC)cc1F = 24%
C=C(CN1CCCC1)C(=O)Nc1ccc(OC)c(Nc2ncc(Cl)c(Nc3ccccc3C(=O)C(=O)N(C)C)n2)c1 = 6%
C=CC(=O)Nc1cc(Nc2ncc(Cl)c(Nc3ccccc3C(=O)C(=O)N(C)C)n2)ccc1OC = 25%
CCN(CC)C(=O)C(=O)c1ccccc1Nc1nc(Nc2ccc(N3CCN(C)CC3)c(OC)c2)ncc1Cl = 22%
C=C(CN1CCCCC1)C(=O)Nc1cc(Nc2ncc(Cl)c(Nc3ccccc3C(=O)C(=O)N(C)C)n2)ccc1N1CCOCC1 = 3%
C=CC(=O)Nc1cc(Nc2ncc(Cl)c(Nc3ccccc3C(=O)C(=O)N(C)CCN(C)C)n2)ccc1OC = 5%
COc1cc(Nc2ncc(Cl)c(Nc3ccccc3C(=O)C(=O)N(C)C)n2)ccc1N1CCN(C(C)=O)CC1 = 9%
C=CC(=O)Nc1ccc(OC)c(Nc2ncc(Cl)c(Nc3ccccc3C(=O)C(=O)N3CCN(C)CC3)n2)c1 = 1%
C=C(CN1CCCCC1)C(=O)Nc1ccc(OC)c(Nc2ncc(Cl)c(Nc3ccccc3C(=O)C(=O)N(C)C)n2)c1 = 3%

====

test system: EGFR (T790M) (h); type: biochemical, human; details: 0.1 μM test compound, 10 μM ATP; remaining activity relative to DMSO control = 100%
Heads up, the class ranges for Activity (control) % EGFR (T790M) (h) are low value = under 50%, medium value = from 50% up to 80%, high value = 80% and over

C=C(CN1CCCCC1)C(=O)Nc1cccc(Nc2ncc(Cl)c(Nc3ccccc3C(=O)C(=O)N(C)C)n2)c1 = low value
C=C(CN(C)CCN(C)C)C(=O)Nc1ccc(OC)c(Nc2ncc(Cl)c(Nc3ccccc3C(=O)C(=O)N(C)C)n2)c1 = low value
C=CC(=O)Nc1cc(Nc2ncc(Cl)c(Nc3ccccc3C(=O)C(=O)N(CC)CC)n2)ccc1OC = medium value
COc1cc(Nc2ncc(Cl)c(Nc3ccccc3C(=O)C(=O)N(C)C)n2)ccc1N1CCOCC1 = medium value
COc1ccc(NC(=O)/C=C/CN2CCCCC2)cc1Nc1ncc(Cl)c(Nc2ccccc2C(=O)C(=O)N(C)C)n1 = medium value
CCC(=O)Nc1cc(Nc2ncc(Cl)c(Nc3ccccc3C(=O)C(=O)N(C)C)n2)ccc1OCCN(C)C = medium value
C=CC(=O)Nc1cc(Nc2ncc(C)c(Nc3ccccc3C(=O)C(=O)N(C)C)n2)ccc1OC = high value
C=CC(=O)Nc1cc(Nc2ncc(Cl)c(Nc3ccccc3C(=O)C(=O)N(C)C)n2)ccc1N1CCN(C)CC1 = medium value
CN(C)C(=O)C(=O)c1ccccc1Nc1nc(Nc2ccc(F)c(NC(=O)CCN3CCOCC3)c2)ncc1Cl = high value
C=CC(=O)Nc1cc(Nc2ncc(Cl)c(Nc3ccccc3C(=O)C(=O)N(C)C)n2)c(OC)cc1F = medium value
COc1cc(N2CCN(C(C)=O)CC2)ccc1Nc1ncc(Cl)c(Nc2ccccc2C(=O)C(=O)N(C)C)n1 = low value
COc1ccc(NC(=O)/C=C/CN2CCOCC2)cc1Nc1ncc(Cl)c(Nc2ccccc2C(=O)C(=O)N(C)C)n1 = low value
